B1: TLE6 (parent)
chain: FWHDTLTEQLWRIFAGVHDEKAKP

- Variants of: B1
- assayDetails: protein stability index of a GFP-peptide fusion (GPS, HEK-293T) (PSI 1-6); higher = more stable;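 further: lentivirally expressed fusions sorted by FACS into six bins by GFP to DsRed ratio, PSI derived from sequencing read proportions per bin multiplied by bin number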
- experimentalConditions: c terminus: a fixed tail appended
Everything with protein stability index lower than 2 is label 0; everything else, including exactly 2, is label 1.

Check if protein stability index >= 2 (inclusive). Item: W2R
label 1

Then this variant: I13Q
label 1

Then this variant: A22R
label 0

Then this variant: D4A
label 0

Then this variant: A22G
label 0

Then this variant: I13D
label 0

Then this variant: T7L
label 1

Then this variant: K21M
label 1

Then this variant: I13L
label 0
